Test: binders of probe aHhip on microarray, primary screen, stem cell growth factor project, biochemical, small-molecule microarray, fluorescence 635/667 (AID 1087);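 further: score merges spot fluorescence at 667nm with spot signal to noise ratio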
Conditions: higher = more signal
Hi, to clarify the labels: MET covers composite z-score from -0.07 upward, NOT MET covers anything below -0.07.

Quick check, composite z-score >= -0.07? `C=C(COC)C(=O)CC[C@H](OC(C)=O)c1ccccc1OCCO`
NOT MET

====

Assay: yeast growth modulation, basal conditions, primary screen, YJM789 clinical isolate, OD600, 24 h (AID 1089);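 further: growth of clinical yeast isolate S. cerevisiae YJM 789 seeded 1000 cells per well; test concentration not given here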
Details: S. cerevisiae YJM789 growth, higher = more signal, called active from +8 up or from −8 down
Returns 1 if the recorded z-score is greater than or equal to 0.06, and 0 otherwise.

Could you please find out whether `CC[C@@H]1C=C(C(=O)O)[C@H](c2cccc(Cl)c2)N1S(=O)(=O)c1ccc(C)cc1` has z-score that meets 0.06 or exceeds it?
0

====

# composite z-score per entry
Experiment: binders of probe aFGF2 on microarray, primary screen, stem cell growth factor project, biochemical, small-molecule microarray, fluorescence 635/667 (AID 1067);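 further: measures binding of biotinylated aFGF2 protein to printed compounds on slides; z-score merges feature fluorescence and signal-to-noise across triplicate slides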
Conditions: higher = more signal
# answer = number (no unit)

Compound	composite z-score
C=CCC(OC(C)=O)[C@@H]1[C@@H](N(Cc2ccc(-c3ccccc3)cc2)C(=O)Cc2ccc(OC)cc2)c2cc(OCCCO)ccc2N1C(=O)c1ccc2ccccc2c1 (some centres undefined)	-0.0486
COC(=O)[C@]1(Cc2ccccc2CN=[N+]=[N-])N=C(c2ccc(OCCCO)cc2)O[C@@H]1c1ccccc1N=[N+]=[N-]	-0.0465
CC(C)N1C(=O)[C@@]2(Cc3ccccc31)c1ccccc1C(=O)N(Cc1ccccc1C(F)(F)F)[C@H]2c1ccc(CO)cc1	-0.0775

Need composite z-score of `COC(=O)[C@@]1(Cc2ccc(F)cc2)[C@H]2c3cc(C(=O)N4CCCC4)n(Cc4ccc(C(F)(F)F)nc4)c3C[C@H]2CN1C(=O)c1ccccc1` , thanks.
0.16

====

Target: NADPH oxidase 2 (Homo sapiens) (UniProt P04839)
Sequence (P04839 whole entry, looked up): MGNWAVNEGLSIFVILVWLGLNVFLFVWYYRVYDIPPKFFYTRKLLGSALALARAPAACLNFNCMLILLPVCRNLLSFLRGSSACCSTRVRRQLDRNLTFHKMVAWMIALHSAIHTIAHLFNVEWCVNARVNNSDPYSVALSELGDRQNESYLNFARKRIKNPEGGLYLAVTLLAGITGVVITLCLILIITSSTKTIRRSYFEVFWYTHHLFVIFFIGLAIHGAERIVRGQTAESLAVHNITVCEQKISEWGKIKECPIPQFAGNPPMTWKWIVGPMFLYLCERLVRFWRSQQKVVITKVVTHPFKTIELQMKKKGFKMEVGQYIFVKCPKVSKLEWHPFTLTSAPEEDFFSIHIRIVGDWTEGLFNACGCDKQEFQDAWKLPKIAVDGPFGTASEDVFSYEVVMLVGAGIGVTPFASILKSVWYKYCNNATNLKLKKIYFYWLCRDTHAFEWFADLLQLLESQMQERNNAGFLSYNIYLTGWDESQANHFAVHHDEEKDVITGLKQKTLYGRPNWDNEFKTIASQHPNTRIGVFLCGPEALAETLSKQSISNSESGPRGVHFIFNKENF
Test: NOX2-dependent H2O2 signal modulators, primary screen, NOX inhibitor project, cell-based, HEK293-NOX2, PMA-stimulated, Amplex Red fluorescence (AID 1159); further: test concentration not given here
Details: 45 min, higher = more signal, called active from +8 up or from −8 down
Outcome label depends on z-score relative to 0.9: at/above gives 1 (yes), below gives 0 (no).

Solved entries (count: 10):
Molecule	Group label
O=C1OCC=C[C@H]2OC34C=CCN(Cn5nnc6ccccc65)C(=O)[C@H]3N(CCO)C(=O)[C@@H]4[C@@H]12 (some centres not stated)	1 (yes)
COC(=O)[C@@]1(Cc2ccccc2)[C@H]2c3cc(C(=O)N(C)C)n(CCF)c3C[C@H]2CN1C(=O)c1ccccc1	0 (no)
O=C1O[C@@H](c2ccccc2)[C@@H](c2ccccc2)N2[C@@H](c3ccc(OCCO)cc3)[C@]3(C(=O)Nc4ccc(C#CC5=CCCCC5)cc43)[C@@H](C(=O)Nc3nc4ccccc4s3)[C@H]12	1 (yes)
Cc1cccc([C@H]2C[C@H]3C(Br)=C[C@@]2(CO)C(=O)[C@]32CO2)c1	0 (no)
COc1ccc(NN2C(C(O)c3ccccc3)C=CC3C(=O)N(C4CCCCC4)C(=O)C32)cc1 (configuration not stated)	0 (no)
[N-]=[N+]=Nc1ccccc1C[C@@]1(C(=O)NCC(O)CO)N=C(c2ccc(OCCCO)cc2)O[C@@H]1c1ccccc1N=[N+]=[N-] (some centres not stated)	0 (no)
COc1ccc(C(O)C2C=CC3C(=O)N(c4ccccc4)C(=O)C3N2Nc2ccccc2F)c2ccccc12 (configuration not stated)	0 (no)
COc1ccc(C(=O)Nc2cccc(CN3C(=O)[C@]4(O[C@H](CC(=O)N(CCO)Cc5ccccc5)[C@@H]([Si](C)(C)c5ccc(OC)cc5)[C@@H]4C)c4ccccc43)c2)cc1	1 (yes)
COCCCNC(=O)[C@]1(Cc2ccccc2CN=[N+]=[N-])N=C(c2ccc(OCCCO)cc2)O[C@@H]1c1ccccc1N=[N+]=[N-]	0 (no)
COc1cc2c(cc1OC)CN(C(=O)[C@@H]1[C@H]3C(=O)O[C@H](c4ccccc4)[C@H](c4ccccc4)N3[C@H](c3ccc(O)cc3)[C@@]13C(=O)Nc1ccc(C#CC4=CCCCC4)cc13)CC2	1 (yes)

Continue with the next molecule.
hey, is z-score for this one >= 0.9? `Cc1ccc(S[C@]2(C(=O)NCc3ccccc3)CC(=O)N(Cc3ccccc3C(F)(F)F)[C@@H]2c2ccc(CO)cc2I)cc1`
0 (no)

====

Test: binders from COS7 lysate, DM2A8 probe, primary screen, torsin A project, cell lysate, small-molecule microarray, fluorescence 635/667 (AID 1065)
Conditions: higher = more signal, COS7 lysate expressing mutant human TOR1A
Recorded measurements of composite z-score, one per entry
Lab note: record the figure alone, no unit after it.

Guide cases for composite z-score, answers given:
CCCCCCc1nc(-c2ccc(OC)nc2)c(C)c2c1[Si](C(C)C)(C(C)C)OC2 -0.0637
COc1ccc(CCNC(=O)[C@@]2(C)c3ccccc3C(=O)N(Cc3ccc(OC(F)(F)F)cc3)[C@H]2c2ccc(CO)cc2)cc1 0.197
Cc1ccc(S[C@]2(C(=O)NC3CC3)CC(=O)N(C3Cc4ccccc4C3)[C@@H]2c2ccc(CO)cc2I)cc1 -0.1

# input for lookup
Quick one: composite z-score for `CC(C)N1C(=O)[C@@]2(Cc3ccccc31)c1ccccc1C(=O)N(Cc1ccccc1)[C@H]2c1ccc(CO)cc1` ?
-0.164

====

The entries below are paired with their reported composite z-score.
System: Lefty1
Assay: Lefty1 binders on small-molecule microarrays, primary screen, biochemical, small-molecule microarray, 635/667 nm fluorescence (AID 1139)
Conditions: small-molecule microarray binding, fluorescence 635/667; higher = more signal
Form rule: numeric answer, no unit written next to it.

Here's what some known entries look like.
Compound	Observable	Recorded value
C=CCNC(=O)[C@H]1[C@@H]2C(=O)O[C@@H](c3ccccc3)[C@@H](c3ccccc3)N2[C@@H](c2ccc(O)cc2)[C@]12C(=O)Nc1ccccc12	composite z-score	-0.319
COC(=O)C(CC#Cc1ccc2c(c1)[C@]1(C(=O)N2)[C@H](C(=O)N2CCN(c3ncccn3)CC2)[C@H]2C(=O)O[C@H](c3ccccc3)[C@H](c3ccccc3)N2[C@@H]1c1ccc(O)cc1)C(=O)OC	composite z-score	1.03

Now let's try a different one.
Which composite z-score is listed for COc1ccc(C(O)C2C=CC3C(=O)N(c4ccccc4)C(=O)C3N2Nc2ccccc2F)c2ccccc12 (stereo not drawn) ?
-0.111

====

Target: Neurogenic locus notch homolog protein 3 (Homo sapiens) (UniProt Q9UM47)
Sequence (Q9UM47 whole entry, looked up): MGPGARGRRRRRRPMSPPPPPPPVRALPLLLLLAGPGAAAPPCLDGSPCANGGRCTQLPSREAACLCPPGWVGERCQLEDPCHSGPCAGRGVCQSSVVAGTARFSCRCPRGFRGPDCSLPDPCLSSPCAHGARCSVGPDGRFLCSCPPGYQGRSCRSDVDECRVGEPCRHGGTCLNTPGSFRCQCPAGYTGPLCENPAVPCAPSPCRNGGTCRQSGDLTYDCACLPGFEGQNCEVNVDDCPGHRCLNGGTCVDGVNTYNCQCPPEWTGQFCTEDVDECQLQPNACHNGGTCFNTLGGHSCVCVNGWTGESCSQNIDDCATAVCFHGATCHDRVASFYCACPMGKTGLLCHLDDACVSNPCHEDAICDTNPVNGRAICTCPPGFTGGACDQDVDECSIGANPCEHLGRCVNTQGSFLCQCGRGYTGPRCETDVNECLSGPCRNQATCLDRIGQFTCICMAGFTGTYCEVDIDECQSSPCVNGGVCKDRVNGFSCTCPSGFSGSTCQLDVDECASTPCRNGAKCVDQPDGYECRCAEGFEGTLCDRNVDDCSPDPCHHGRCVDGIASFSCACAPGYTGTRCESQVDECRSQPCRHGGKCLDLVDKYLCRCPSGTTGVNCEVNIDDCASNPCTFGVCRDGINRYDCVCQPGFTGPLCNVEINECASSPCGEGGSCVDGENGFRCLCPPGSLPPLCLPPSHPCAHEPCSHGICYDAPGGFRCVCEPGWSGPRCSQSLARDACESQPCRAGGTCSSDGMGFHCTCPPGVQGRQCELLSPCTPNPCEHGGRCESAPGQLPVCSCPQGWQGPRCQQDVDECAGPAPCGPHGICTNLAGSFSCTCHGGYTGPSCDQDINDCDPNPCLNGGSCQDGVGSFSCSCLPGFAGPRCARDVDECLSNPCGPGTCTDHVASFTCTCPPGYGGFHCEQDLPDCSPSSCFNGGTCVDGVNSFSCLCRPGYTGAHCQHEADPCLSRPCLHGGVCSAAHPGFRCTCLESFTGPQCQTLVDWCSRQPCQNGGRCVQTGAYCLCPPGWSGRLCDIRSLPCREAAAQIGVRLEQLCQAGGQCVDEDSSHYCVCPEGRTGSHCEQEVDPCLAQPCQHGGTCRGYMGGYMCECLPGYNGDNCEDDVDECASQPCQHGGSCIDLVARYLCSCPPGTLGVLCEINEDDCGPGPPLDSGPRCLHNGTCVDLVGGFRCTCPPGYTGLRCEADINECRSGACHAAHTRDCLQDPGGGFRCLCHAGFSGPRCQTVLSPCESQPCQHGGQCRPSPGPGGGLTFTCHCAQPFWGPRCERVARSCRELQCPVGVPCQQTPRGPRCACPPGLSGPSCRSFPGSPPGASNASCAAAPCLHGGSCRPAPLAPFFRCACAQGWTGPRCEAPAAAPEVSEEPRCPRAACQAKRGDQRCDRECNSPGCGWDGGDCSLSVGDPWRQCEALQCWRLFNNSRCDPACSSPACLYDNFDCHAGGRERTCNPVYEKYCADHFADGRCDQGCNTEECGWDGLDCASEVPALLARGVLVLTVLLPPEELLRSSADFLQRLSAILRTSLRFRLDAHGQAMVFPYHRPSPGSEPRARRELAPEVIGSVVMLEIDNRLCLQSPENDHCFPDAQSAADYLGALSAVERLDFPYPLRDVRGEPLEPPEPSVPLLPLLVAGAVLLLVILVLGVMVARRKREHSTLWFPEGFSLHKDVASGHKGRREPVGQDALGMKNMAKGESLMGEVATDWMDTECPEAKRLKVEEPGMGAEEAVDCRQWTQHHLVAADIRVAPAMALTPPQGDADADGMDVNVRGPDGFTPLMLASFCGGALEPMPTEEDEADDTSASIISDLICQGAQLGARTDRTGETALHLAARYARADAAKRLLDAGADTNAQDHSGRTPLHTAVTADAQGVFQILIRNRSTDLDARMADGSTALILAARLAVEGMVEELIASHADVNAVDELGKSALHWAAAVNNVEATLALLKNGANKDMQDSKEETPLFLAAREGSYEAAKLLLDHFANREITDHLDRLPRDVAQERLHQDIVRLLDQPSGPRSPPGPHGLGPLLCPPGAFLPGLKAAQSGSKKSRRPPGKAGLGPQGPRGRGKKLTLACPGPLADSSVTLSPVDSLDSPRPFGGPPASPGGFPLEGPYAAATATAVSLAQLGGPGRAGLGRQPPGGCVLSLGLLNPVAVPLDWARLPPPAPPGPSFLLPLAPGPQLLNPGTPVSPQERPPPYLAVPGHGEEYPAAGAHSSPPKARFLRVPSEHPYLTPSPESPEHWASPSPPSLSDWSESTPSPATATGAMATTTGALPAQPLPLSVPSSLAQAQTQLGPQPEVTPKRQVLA
Test: NOTCH3 binders on small-molecule microarray, primary screen, biochemical, 635/667 nm fluorescence (AID 1096)
Settings: NOTCH3 binding, 635 nm fluorescence, higher = more signal
Output t for composite z-score not less than 0.8; output f otherwise.

// below: answered molecules
Molecule	Group label
CC1(C)OB(/C=C\CC(OC(=O)c2ccncc2)c2ccccc2)OC1(C)C (stereo not given)	f
COc1c(C)cc(-c2cc3c(c(CCc4ccccc4)n2)[Si](C(C)C)(C(C)C)O[C@H]3c2ccccc2)cc1C	f
CC[C@@H]1C=C(C(=O)O)[C@H](c2cccc(Cl)c2)N1S(=O)(=O)c1ccc(C)cc1	f
O=C1O[C@H](c2ccccc2)[C@H](c2ccccc2)N2[C@H]1[C@@H](C(=O)N1CCN(c3ncccn3)CC1)[C@]1(C(=O)Nc3ccc(C#CC4(O)CCCCCC4)cc31)[C@H]2c1ccc(O)cc1	t
COc1ccc(C(O)C2C=CC3C(=O)N(C)C(=O)C3N2Nc2ccccc2)cc1 (stereo not given)	t

Hi team, for O=C1NC(=O)C2C1C=CC(C(O)C1CCCCC1)N2Nc1ccccn1 (stereo not given) , is the recorded composite z-score at or above 0.8?
f

Is the recorded value of composite z-score equal to or greater than 0.8 for this molecule? `C=C(CCCC)C(=O)CC[C@@H](OC(C)=O)c1ccc(OCCO)cc1`
t

Entry `[N-]=[N+]=NCc1ccccc1C[C@@]1(C(N)=O)N=C(c2ccc(OCCCO)cc2)O[C@@H]1c1ccccc1N=[N+]=[N-]` : is its composite z-score no less than 0.8?
f

Check if composite z-score >= 0.8 (inclusive). Item: `COC(=O)[C@@]1(Cc2ccc(F)cc2)[C@H]2c3cc(C(=O)N4CCCC4)n(CCSCCO)c3C[C@H]2CN1C(=O)c1ccccc1`
f

Could you verify whether the entry `CC(=O)NCCCC[C@@H]1NC(=O)[C@H]2C[C@@H](C(=O)O)[C@@H](c3cccc(OCCO)c3)N2C1=O` shows composite z-score of no less than 0.8?
t

Please indicate if the recorded composite z-score for `C=C(C(=O)CC[C@@H](OC(=O)c1ccccc1-c1ccccc1C(=O)O)c1ccc(OCCO)cc1)C(C)C` meets or exceeds 0.8.
t

====

Assay: P. aeruginosa biofilm formation inhibitors, primary screen, PAO1 strain, BacTiter-Glo luminescence, LB-PBS (AID 1144)
Settings: 12 h, higher = more signal
Observable: z-score
No unit in the answer, only the number.

Compound	Observable	Recorded value
C=C(/C=C\CNS(=O)(=O)c1ccc(C)cc1)[C@H](O)[C@H]1CCCN1S(=O)(=O)c1ccccc1[N+](=O)[O-]	z-score	0.227

Return reported z-score; argument: `COCCCNC(=O)[C@@]1(Cc2ccccc2I)c2ccccc2C(=O)N(C2CCCCC2)[C@H]1c1ccc(CO)cc1`
-1.54

Suppose we examine the compound CC(C)c1ccc(NN2C(C(O)c3ccccc3)C=CC3C(=O)N(c4ccccc4)C(=O)C32)cc1 (centres undefined) ; what z-score value has been reported?
-0.89

Please look up its z-score: `COc1c(C)cc(-c2nc(-c3ccccc3)c3c(c2C)CO[Si]3(C(C)C)C(C)C)cc1C`
0.306
